assay: fission yeast growth modulation, primary screen, strain 972, OD600, 24 h, no modulator (AID 1090);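 also: basal condition with compound alone and no growth modifier present; test concentration not given here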; conditions: S. pombe 972 growth, higher = more signal, called active from +8 up or from −8 down
Activity calls are given as the source filed them.
Quantity Measured: z-score

I'm hoping you can list z-score for every compound here, please.
1. COc1cccc(C)c1NC(=O)O[C@H]1[C@H](OC(=O)Nc2ccc3c(c2)OCO3)[C@H](OC(=O)Nc2ccc3c(c2)OCO3)[C@@H](OC)O[C@@H]1CO
2. COC(=O)[C@@]1(Cc2ccccc2)[C@H]2c3cc(C(=O)N(C)C)n(CCF)c3C[C@H]2CN1C(=O)c1ccccc1
3. CC[C@H]1C2=C3C(CC[C@H]4C(OCc5ccc(F)cc5C(F)(F)F)OC[C@](C)([C@@H]34)N(C(=O)OC(C)(C)C)C2)C(COC(C)=O)C1COC(C)=O (some centres undefined)
4. COC(=O)C1=CC(c2ccc(CO)cc2)=CC(C2CC2)N(Cc2cc3c(cc2Br)OCO3)C=C1C(=O)OC (centres undefined)
5. COC(=O)[C@@]1(Cc2ccc(F)cc2)[C@H]2c3cc(C(=O)N4CCCC4)n(CCSCCO)c3C[C@H]2CN1C(=O)c1ccccc1
6. Cc1ccc(S[C@]2(C(=O)NC(C)C)CC(=O)N(Cc3ccccc3)[C@@H]2c2ccc(CO)cc2I)cc1
7. COC(=O)C1(CC(C)C)C=C2C(=C(C)C(=O)C2C)CN1 (centres undefined)

Given back:
1: 0.718 (inactive); 2: 1.18 (inactive); 3: 0.387 (inactive); 4: -2.47 (inactive); 5: 1.25 (inactive); 6: -1.15 (inactive); 7: 0.543 (inactive)
